# experiment.summary: Volume of distribution at steady state in rat at 2.1 umol/kg, iv
# Assay type: ADME, organism-based
# study.conditions: in vivo, read-out: Vdss
readout.type: Vd (L/kg)
Write the answer as a number in L/kg, unit excluded.

In: Check the records and state Vd for CC(C)N1CCN(C(=O)C2CC3(CCN(C4CCOCC4)CC3)C2)CC1
Out: 64

###

For each record, write down the corresponding microsomal CLint.
# experiment.summary: Intrinsic clearance in rat liver microsomes
# Type: ADME
# study.conditions: read-out: CLH
Kindly answer with a numeric value in µL/min/mg, unit omitted.

In: # return recorded microsomal CLint for input CS(=O)(=O)N1CCC2(CC1)CC(C(=O)N1CCN(C3CCC3)CC1)C2
Out: 16

In: Check the records and state microsomal CLint for O=C(c1ccccc1)N1CCC2(CC1)CCN(C(=O)N1CCN(C3CCC3)CC1)C2
Out: 25

In: Identify the reported microsomal CLint for the following entry. O=C(C1CC12CCN(C1CCOCC1)CC2)N1CCN(C2CC2)CC1 (racemic)
Out: 20

In: Supply microsomal CLint value. Item: CC(C)N1CCN(C(=O)C2CC23CCN(C2CCOCC2)CC3)CC1 (racemic)
Out: 24
